test: soluble on expression in E. coli; label from the status in PepcDB or PDB records
property name: soluble on expression in E. coli

Example entries and their recorded answers appear below.
MGSDKIHHHHHHMLIHQQYTRHGPDYRFGEQMTFLDVKQTFGFSHVRVGRWVTREESLIAANLVFDSLADLAFILHLPPLTLGLRQSLSLAFGHGGQKGVQAHYAPAARELALAKNAGAGALAHEFWHAFDHYVAPKAFQRVTGRFTCASDLWLADLPLIDHPLNQRLVEIFRVTLLSEDNLAPSDYVRRAIALDKRYGSQYFAKPTEMMARAFEACIESYQGIQNPYLVSGTRYSSLAKEGAYPDEPHRQRIFKALIAYFEPLGIALGKAG : not soluble
LKQKVENLFNEKCGEALGLKQAVKVPFALFESFPEDFYVEGLPEGVPFRRPSTFGIPRLEKILRNKAKIKFIIKKPEMFETAIKES : soluble
GAAEKTVVNISKVDGMPWFNRMGEGVVQAGKEFNLNASQVGPSSTDAPQQVKIIEDLIARKVDAITIVPNDANVLEPVFKKARDAGIVVLTNESPGQPSANWDVEIIDNEKFAAEYVEHMAKRMGGKGGYVIYVGSLTVPQHNLWADLLVKYQKEHYPDMHEVTRRMPVAESVDDSRRTTLDLMKTYPDLKAVVSFGSNGPIGAGRAVKEKRAKNKVAVYGMMIPSQAASLIKSGDITEGITYDPATAGYALAAVASTLLNGKTIEPGFELKELGKAEVDSDKHIIRFHKVLLVNKDNIDSLY : soluble
MVHYKLTYFNGRGAGECARQVFALADQKYEDVRLTQETFVPLKATFPFGQVPVLEVDGQQLAQSQAICRYLAKTFGFAGATPFESALIDSLADAYTDYRAEMKTYYYTALGFMTGDVDKPKTDVLLPARTKFLGFITKFLKKNSSGFLVGDKISWVDLLVAEHVADMTNRVPEYIEGFPEVKAHMERIQQTPRIKKWIETRPETPF : soluble

Problem: Please look at this sequence and report its soluble on expression in E. coli: "MSTSVAENKALSASGDVNASDASVPPELLTRHPLQNRWALWYLKADRNKEWEDCLKMVSLFDTVEDFWSLYNHIQSAGGLNWGSDYYLFKEGIKPMWEDVNNVQGGRWLVVVDKQRRTQLLDHYWLELLMAIVGEQFDEYGDYICGAVVNVRQKGDKVSLWTRDATRDDVNLRIGQVLKQKLSIPDTEILRYEVHKDSSARTSSTVKPRICLPAKDPAPVKEKGPAATTSPSNPGTEATGTSPATPTP"
Result: not soluble

* * *

experiment: soluble on expression in E. coli; label from the status in PepcDB or PDB records
property name: soluble on expression in E. coli

Example entries and their recorded answers appear below.
MGSDKIHHHHHHMREKIKLELERIEKENDVKILFAVESGSRVWGFPSKDSDYDVRFVYMHPVEWYLSIHDKRDVIEYPISDDLDISGWDIKKALQLFAKSNPALLEWIRSPIFYSKNSNFPEQLQQMSEKNFDPKATIYHYLHMASKNYREFLQGENVKLKKYFYVLRPILACKWLEEKTTLPPVEFDRLITELSIERSVLDEIEQLLIKKKAGTELDVGLKIEVLNQFLEEQIHYYQQYVKGIEKGSGIDIESLNTLFRDMLFAVYEKEHK : not soluble
KHSCIAVIDAGSTGSRLHIYSYDTDDTNTPIHIEEIWNKKIKPGFASIQPNSVTIDAYLTMLLADAPIHNIPVYFYATAGMRLLPQSQQKKYYDELEYWFRQQSQWQLVEAKTITGNDEALFDWLAVNYKLDTLKSVQNKSVGVMDMGGASVQIVFPMPKNAEISKHNQVELNIYGQNINLYVHSFLGLGQTEMSHQFLNSPSCFANDYPLPDGESGQGNAPSCKEEVTSLMNSVHKVNQQIQPLLALNPVNEWYSIGGISNLASSQLFHFENSELTNQSLLQQGDNQICHQQWDILNGQYPDDEYLYQYCLLSSYYYALMVDGYGINPNQTIHYIPPEQNLDWTIGVVLHRA : soluble
MHVNGKVALVTGAAQGIGRAFAEALLLKGAKVALVDWNLEAGVQCKAALDEQFEPQKTLFIQCDVADQQQLRDTFRKVVDHFGRLDILVNNAGVNNEKNWEKTLQINLVSVISGTYLGLDYMSKQNGGEGGIIINMSSLAGLMPVAQQPVYCASKHGIVGFTRSAALAANLMNSGVRLNAICPGFVNTAILESIEKEENMGQYIEYKDHIKDMIKYYGILDPPLIANGLITLIEDDALNGAIMKITTSKGIHFQDYDTTPFQAKTQ : not soluble
MRLLVAFAVIYFISISPVCAENTASTINIPTPAIESPLASKSLLLDISLIGQEKLVTVGQHGHILLSNDGKKWQQANVPVQVTLTNVFFLNEQLGWAVGHDATILHSQDGGLNWQVQQYLPLLEKPLFDIYFKNPQQGIAVGAYGQVFRTNDGGSTWQNEFHQEILLADDVEYLNELKAEDEAAYLDEITFILPHFNRLVQDGGSLFLLGETGLLAKSDDFGLTWQQFDNFYQGSFFSLARTKTGNVLVAGLRGHVFRSLNHGSQWDEVPTNTTALLNDIVFANDERIFILGNNGMLLISTDDGESFSKIPQQDGKTLIAGVWFKGQLIAVSDVGIKVVDLSQELEHHHHHH : not soluble

In the following, a different sequence is considered.
Problem: Please look at this sequence and report its soluble on expression in E. coli: "MSLGRFKTLLNQEDYLILHGALGTELEFLGYDVSGKLWSAKYLLENPSIIQTIHETYLRSGSDIVTTSSYQASYQGLCDYGLSQEEAEKMIALTVSLAKNAREKVWQELSEKEKQVRPYPLISGDVGPYAAYLADGSEYTGNYGQLDKEVLKDFHRSRIKILVDEGSDLLALETIPNFLEAQALVELLQEEFPSVEAYMSFTAQNGTTISDGTAIEEVAELIDKASQILALGINCSSPSVYSSLLKKIADITDKPLVTYPNSGEVYDGQHQMWTQSADISHTLLENTKIWHTFGAKVVGGCCRTRPNDIESLSRGLREEGHHHHHH"
Result: soluble
